Values compiled from ChEMBL document CHEMBL2218924.

# STUDY_SYSTEM: Tyrosine-protein kinase HCK (Homo sapiens) (UniProt P08631)
# Sequence (P08631 2-526 limits assumed): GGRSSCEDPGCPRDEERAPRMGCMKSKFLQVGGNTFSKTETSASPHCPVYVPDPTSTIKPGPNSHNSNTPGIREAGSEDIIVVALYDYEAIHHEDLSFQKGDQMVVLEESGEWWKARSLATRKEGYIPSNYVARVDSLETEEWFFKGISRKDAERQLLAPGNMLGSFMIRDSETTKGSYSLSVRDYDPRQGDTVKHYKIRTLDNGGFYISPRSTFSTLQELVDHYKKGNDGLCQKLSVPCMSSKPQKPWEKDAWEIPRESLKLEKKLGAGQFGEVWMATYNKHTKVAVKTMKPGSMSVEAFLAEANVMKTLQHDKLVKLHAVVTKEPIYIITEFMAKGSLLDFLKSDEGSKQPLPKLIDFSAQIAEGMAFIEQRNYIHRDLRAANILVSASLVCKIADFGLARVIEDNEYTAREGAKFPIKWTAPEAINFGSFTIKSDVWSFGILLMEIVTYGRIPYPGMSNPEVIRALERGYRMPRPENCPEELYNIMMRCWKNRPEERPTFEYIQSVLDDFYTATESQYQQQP
# MEASUREMENT_CONTEXT: at 1 µM
Returns YES if the recorded residual activity is greater than or equal to 60%, and NO otherwise.

| COMPOUND | CATEGORY_LABEL |
| --- | --- |
| C[S+]([O-])c1ccc(-c2nc(-c3ccc(F)cc3)c(-c3ccncc3)[nH]2)cc1 (configuration not stated) | YES |
| c1cc(-c2cnn3cc(-c4ccc(OCCN5CCCCC5)cc4)cnc23)ccn1 | YES |
| CCn1cnc2c(Nc3cccc(Cl)c3)nc(N[C@@H]3CCCC[C@@H]3N)nc21 | NO |
| COc1ccc2c(c[n+](C)c3c4cc5c(cc4ccc23)OCO5)c1OC | YES |
| O=[N+]([O-])/C=C/c1ccc2c(c1)OCO2 | YES |
| COC(=O)[C@@]1(O)C[C@H]2O[C@]1(C)n1c3ccccc3c3c4c(c5c6ccccc6n2c5c31)C(=O)NC4 | NO |
| O=C1NC(=O)c2c1c1c3ccccc3n3c1c1c2c2ccccc2n1C1CCC3O1 | YES |

---

Below, each entry is listed with its recorded residual activity.
# STUDY_SYSTEM: Protein kinase C gamma type (Homo sapiens)
# MEASUREMENT_CONTEXT: at 10 µM

| MOLECULE | UNIT_LABEL | residual activity |
| --- | --- | --- |
| CCc1nc(-c2ccc(OC)cc2)[nH]c1-c1ccncc1 | % | 108 |
| O=[N+]([O-])/C=C/c1ccc2c(c1)OCO2 | % | 67 |
| O=c1[nH]c2ccccc2n1C1CCN(Cc2ccc(-c3nc4cc5[nH]cnc5cc4nc3-c3ccccc3)cc2)CC1 | % | 98 |
| O=C1NC(=O)c2c1c1c3ccccc3n3c1c1c2c2ccccc2n1C1CCC3O1 | % | 96 |
| COC(=O)[C@@]1(O)C[C@H]2O[C@]1(C)n1c3ccccc3c3c4c(c5c6ccccc6n2c5c31)C(=O)NC4 | % | 2 |
| COc1cc2ncnc(Nc3ccc(OCc4ccccc4)cc3)c2cc1OC | % | 108 |
| C[S+]([O-])c1ccc(-c2nc(-c3ccc(F)cc3)c(-c3ccncc3)[nH]2)cc1 (stereo not drawn) | % | 103 |
| O=C1Nc2ccc3ncsc3c2/C1=C/c1c[nH]cn1 | % | 21 |

---

# STUDY_SYSTEM: Serine/threonine-protein kinase N2 (Homo sapiens)
# MEASUREMENT_CONTEXT: at 10 µM
Returns label 1 if the recorded residual activity is greater than or equal to 90%, and label 0 otherwise.

| MOL | STUDY_SYSTEM | CATEGORY_LABEL |
| --- | --- | --- |
| O=[N+]([O-])/C=C/c1ccc2c(c1)OCO2 | Serine/threonine-protein kinase N2 (Homo sapiens) | label 1 |
| COc1cc(OC)c(/C=C2\C(=O)Nc3ccccc32)c(OC)c1 | Serine/threonine-protein kinase N2 (Homo sapiens) | label 0 |
| COc1ccc2c(c1)/C(=C/c1cnc[nH]1)C(=O)N2 | Serine/threonine-protein kinase N2 (Homo sapiens) | label 0 |
| CCn1cnc2c(Nc3cccc(Cl)c3)nc(N[C@@H]3CCCC[C@@H]3N)nc21 | Serine/threonine-protein kinase N2 (Homo sapiens) | label 0 |
| CC(C)(C)c1cc(C=C(C#N)C#N)cc(Br)c1O | Serine/threonine-protein kinase N2 (Homo sapiens) | label 1 |

---

# STUDY_SYSTEM: NUAK family SNF1-like kinase 1 (Homo sapiens) (UniProt O60285)
# Sequence (O60285 whole entry): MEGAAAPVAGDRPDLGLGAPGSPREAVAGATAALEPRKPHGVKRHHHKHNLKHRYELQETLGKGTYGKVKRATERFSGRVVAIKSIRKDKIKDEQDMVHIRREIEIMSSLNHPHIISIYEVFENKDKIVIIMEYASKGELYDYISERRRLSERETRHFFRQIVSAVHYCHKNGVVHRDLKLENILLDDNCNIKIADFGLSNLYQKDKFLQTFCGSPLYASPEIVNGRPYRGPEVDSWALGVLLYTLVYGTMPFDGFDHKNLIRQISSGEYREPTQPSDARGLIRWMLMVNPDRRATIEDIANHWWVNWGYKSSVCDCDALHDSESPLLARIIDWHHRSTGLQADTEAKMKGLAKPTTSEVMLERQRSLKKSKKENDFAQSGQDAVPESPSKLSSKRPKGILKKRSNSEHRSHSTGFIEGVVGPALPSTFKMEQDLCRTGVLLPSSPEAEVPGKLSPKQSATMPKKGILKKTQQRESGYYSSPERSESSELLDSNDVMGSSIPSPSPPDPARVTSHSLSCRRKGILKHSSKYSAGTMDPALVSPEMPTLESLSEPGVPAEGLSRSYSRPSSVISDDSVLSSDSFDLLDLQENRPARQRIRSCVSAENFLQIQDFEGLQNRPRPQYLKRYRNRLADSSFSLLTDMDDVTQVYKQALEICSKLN
# MEASUREMENT_CONTEXT: at 1 µM
In plain terms, low residual activity, meaning strictly below 40%, gives T, and everything else gives F.

| MOL | STUDY_SYSTEM | CATEGORY_LABEL |
| --- | --- | --- |
| CCn1cnc2c(Nc3cccc(Cl)c3)nc(N[C@@H]3CCCC[C@@H]3N)nc21 | NUAK family SNF1-like kinase 1 (Homo sapiens) (UniProt O60285) | T |
| COC(=O)[C@@]1(O)C[C@H]2O[C@]1(C)n1c3ccccc3c3c4c(c5c6ccccc6n2c5c31)C(=O)NC4 | NUAK family SNF1-like kinase 1 (Homo sapiens) (UniProt O60285) | T |
| O=c1[nH]c2ccccc2n1C1CCN(Cc2ccc(-c3nc4cc5[nH]cnc5cc4nc3-c3ccccc3)cc2)CC1 | NUAK family SNF1-like kinase 1 (Homo sapiens) (UniProt O60285) | F |
| CN[C@@H]1C[C@H]2O[C@@](C)([C@@H]1OC)n1c3ccccc3c3c4c(c5c6ccccc6n2c5c31)C(=O)NC4 | NUAK family SNF1-like kinase 1 (Homo sapiens) (UniProt O60285) | T |
| O=C1Nc2ccc3ncsc3c2/C1=C/c1c[nH]cn1 | NUAK family SNF1-like kinase 1 (Homo sapiens) (UniProt O60285) | T |
| COc1cc(OC)c(/C=C2\C(=O)Nc3ccccc32)c(OC)c1 | NUAK family SNF1-like kinase 1 (Homo sapiens) (UniProt O60285) | F |
| CC(C)(C)c1cc(C=C(C#N)C#N)cc(Br)c1O | NUAK family SNF1-like kinase 1 (Homo sapiens) (UniProt O60285) | F |
| COc1ccc2c(c1)/C(=C/c1cnc[nH]1)C(=O)N2 | NUAK family SNF1-like kinase 1 (Homo sapiens) (UniProt O60285) | T |

---

Below, each entry is listed with its recorded residual activity.
# STUDY_SYSTEM: Protein kinase C eta type (Homo sapiens)
# MEASUREMENT_CONTEXT: at 1 µM

| MOL | STUDY_SYSTEM | residual activity, % |
| --- | --- | --- |
| CCn1cnc2c(Nc3cccc(Cl)c3)nc(N[C@@H]3CCCC[C@@H]3N)nc21 | Protein kinase C eta type (Homo sapiens) | 93 |
| O=C1c2ccccc2-c2nc3nnnn3nc21 | Protein kinase C eta type (Homo sapiens) | 117 |
| O=C1Nc2ccc3ncsc3c2/C1=C/c1c[nH]cn1 | Protein kinase C eta type (Homo sapiens) | 23 |
| COc1cc(OC)c(/C=C2\C(=O)Nc3ccccc32)c(OC)c1 | Protein kinase C eta type (Homo sapiens) | 94 |
| COC(=O)[C@@]1(O)C[C@H]2O[C@]1(C)n1c3ccccc3c3c4c(c5c6ccccc6n2c5c31)C(=O)NC4 | Protein kinase C eta type (Homo sapiens) | 36 |
| CC(C)[C@H](CO)Nc1nc(Nc2cccc(Cl)c2)c2ncn(C(C)C)c2n1 | Protein kinase C eta type (Homo sapiens) | 100 |
| O=c1[nH]c2ccccc2n1C1CCN(Cc2ccc(-c3nc4cc5[nH]cnc5cc4nc3-c3ccccc3)cc2)CC1 | Protein kinase C eta type (Homo sapiens) | 120 |
| c1cc(-c2cnn3cc(-c4ccc(OCCN5CCCCC5)cc4)cnc23)ccn1 | Protein kinase C eta type (Homo sapiens) | 106 |
| COc1cc2ncnc(Nc3ccc(OCc4ccccc4)cc3)c2cc1OC | Protein kinase C eta type (Homo sapiens) | 109 |

---

# STUDY_SYSTEM: Interleukin-1 receptor-associated kinase 4 (Homo sapiens) (UniProt Q9NWZ3)
# Sequence (Q9NWZ3 whole entry): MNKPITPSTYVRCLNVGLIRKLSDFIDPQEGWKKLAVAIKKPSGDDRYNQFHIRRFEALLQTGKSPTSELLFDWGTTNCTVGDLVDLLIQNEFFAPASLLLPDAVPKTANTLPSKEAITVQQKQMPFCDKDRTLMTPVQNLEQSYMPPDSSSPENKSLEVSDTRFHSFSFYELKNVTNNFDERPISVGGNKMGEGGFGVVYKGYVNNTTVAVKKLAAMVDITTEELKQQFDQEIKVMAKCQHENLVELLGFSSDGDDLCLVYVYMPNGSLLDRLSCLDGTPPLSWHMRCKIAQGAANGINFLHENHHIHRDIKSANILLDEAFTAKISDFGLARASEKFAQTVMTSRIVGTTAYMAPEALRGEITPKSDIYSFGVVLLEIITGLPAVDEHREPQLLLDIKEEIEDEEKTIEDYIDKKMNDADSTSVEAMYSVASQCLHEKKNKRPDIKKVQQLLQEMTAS
# MEASUREMENT_CONTEXT: at 10 µM
Below, each entry is listed with its recorded residual activity.
RESULT_TYPE: residual activity (%)

| MOL | NUMBER |
| --- | --- |
| COc1ccc2c(c[n+](C)c3c4cc5c(cc4ccc23)OCO5)c1OC | 83 |
| COc1cc2ncnc(Nc3ccc(OCc4ccccc4)cc3)c2cc1OC | 92 |
| CC(C)[C@H](CO)Nc1nc(Nc2cccc(Cl)c2)c2ncn(C(C)C)c2n1 | 9 |
| O=c1[nH]c2ccccc2n1C1CCN(Cc2ccc(-c3nc4cc5[nH]cnc5cc4nc3-c3ccccc3)cc2)CC1 | 93 |
| O=C1NC(=O)c2c1c1c3ccccc3n3c1c1c2c2ccccc2n1C1CCC3O1 | 18 |

---

Below, each entry is listed with its recorded residual activity.
# STUDY_SYSTEM: Interleukin-1 receptor-associated kinase 1 (Homo sapiens) (UniProt P51617)
# Sequence (P51617 whole entry, looked up): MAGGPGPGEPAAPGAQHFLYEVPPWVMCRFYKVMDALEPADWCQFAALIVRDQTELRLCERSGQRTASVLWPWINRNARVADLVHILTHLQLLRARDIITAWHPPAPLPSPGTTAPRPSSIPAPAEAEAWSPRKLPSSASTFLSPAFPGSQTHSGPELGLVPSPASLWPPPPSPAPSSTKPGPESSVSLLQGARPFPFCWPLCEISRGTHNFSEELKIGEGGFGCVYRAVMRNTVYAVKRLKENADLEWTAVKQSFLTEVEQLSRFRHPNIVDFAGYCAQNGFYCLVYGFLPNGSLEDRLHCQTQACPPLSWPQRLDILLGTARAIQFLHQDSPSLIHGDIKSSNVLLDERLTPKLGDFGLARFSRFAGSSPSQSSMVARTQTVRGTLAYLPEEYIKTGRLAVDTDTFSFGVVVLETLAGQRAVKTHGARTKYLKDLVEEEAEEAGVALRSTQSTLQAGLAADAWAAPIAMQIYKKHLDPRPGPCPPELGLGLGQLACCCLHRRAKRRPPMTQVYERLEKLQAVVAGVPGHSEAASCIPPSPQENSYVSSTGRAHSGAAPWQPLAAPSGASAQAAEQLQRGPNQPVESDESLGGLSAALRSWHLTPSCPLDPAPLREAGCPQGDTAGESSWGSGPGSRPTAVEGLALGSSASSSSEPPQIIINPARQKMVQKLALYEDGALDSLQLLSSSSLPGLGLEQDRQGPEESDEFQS
# MEASUREMENT_CONTEXT: at 10 µM
RESULT_TYPE: residual activity (%)

| MOLECULE | UNIT_LABEL | NUMBER |
| --- | --- | --- |
| c1cc(-c2cnn3cc(-c4ccc(OCCN5CCCCC5)cc4)cnc23)ccn1 | % | 2 |
| CCn1cnc2c(Nc3cccc(Cl)c3)nc(N[C@@H]3CCCC[C@@H]3N)nc21 | % | 64 |
| COc1ccc2c(c1)/C(=C/c1cnc[nH]1)C(=O)N2 | % | 37 |
| COc1cc(OC)c(/C=C2\C(=O)Nc3ccccc32)c(OC)c1 | % | 103 |
| O=C1Nc2ccc3ncsc3c2/C1=C/c1c[nH]cn1 | % | 7 |
| CC(C)[C@H](CO)Nc1nc(Nc2cccc(Cl)c2)c2ncn(C(C)C)c2n1 | % | 23 |
| C[S+]([O-])c1ccc(-c2nc(-c3ccc(F)cc3)c(-c3ccncc3)[nH]2)cc1 (stereo unspecified) | % | 97 |
| O=[N+]([O-])/C=C/c1ccc2c(c1)OCO2 | % | 83 |
| COc1ccc2c(c[n+](C)c3c4cc5c(cc4ccc23)OCO5)c1OC | % | 83 |
| O=c1[nH]c2ccccc2n1C1CCN(Cc2ccc(-c3nc4cc5[nH]cnc5cc4nc3-c3ccccc3)cc2)CC1 | % | 88 |
| COc1cc2ncnc(Nc3ccc(OCc4ccccc4)cc3)c2cc1OC | % | 102 |
